- method-summary: pKa values of the free base
- Format: physicochemical
- condition-notes: two values
measurement-type: pKa
Note: the reply should be a number with no unit written.

Recorded pKa (compound Cc1cn(-c2cc(NC(=O)c3ccc(C)c(Nc4nccc(-c5cccnc5)n4)c3)cc(C(F)(F)F)c2)cn1 [Free base (form B)] ): 5.1

###

- method-summary: Decomposition temperature by TGA
- Type: physicochemical
- condition-notes: TGA, onset of the first derivative of sample weight loss v. temperature
Decomposition temperature values by entry
Field: numeric (°C). Do not append units.

Below are worked cases with known answers.
Recorded Decomposition temperature (compound Cc1cn(-c2cc(NC(=O)c3ccc(C)c(Nc4nccc(-c5cccnc5)n4)c3)cc(C(F)(F)F)c2)cn1 [p-Toluene sulfonate] ): 256

Recorded Decomposition temperature (compound Cc1cn(-c2cc(NC(=O)c3ccc(C)c(Nc4nccc(-c5cccnc5)n4)c3)cc(C(F)(F)F)c2)cn1.O=S(=O)(O)O [Sulfate (form B)] ): 201

Recorded Decomposition temperature (compound Cc1cn(-c2cc(NC(=O)c3ccc(C)c(Nc4nccc(-c5cccnc5)n4)c3)cc(C(F)(F)F)c2)cn1 [Benzene sulfonate] ): 260

Further cases:
Recorded Decomposition temperature (compound CCS(=O)(=O)O.Cc1cn(-c2cc(NC(=O)c3ccc(C)c(Nc4nccc(-c5cccnc5)n4)c3)cc(C(F)(F)F)c2)cn1 [Ethane sulfonate] ): 220

Source: patent US8580806B2
